Tested on: Plasmodium falciparum NF54 stage IV/V gametocytes
Protocol: % inhibition of gametocyte viability (luciferase reporter); higher = more inhibition
Condition: 1 µM; 48 h
Parameter % inhibition of gametocyte viability: see the listing below.

q: // lookup % inhibition of gametocyte viability | system=Plasmodium falciparum NF54 stage IV/V gametocytes | key= "N[C@H]1CCC[C@H]1C(=O)O"
a: < 0%

q: // lookup % inhibition of gametocyte viability | system=Plasmodium falciparum NF54 stage IV/V gametocytes | key= "Nc1nnnn1CCOc1c2[nH]c3ccc(Cl)cc3c2cc2c1[nH]c1ccc(Cl)cc12"
a: < 0%

q: // lookup % inhibition of gametocyte viability | system=Plasmodium falciparum NF54 stage IV/V gametocytes | key= "CN(C)CCNC(=O)c1cccc2cccnc12"
a: < 0%

----------
Test system: Plasmodium falciparum NF54 stage IV/V gametocytes
Protocol: % inhibition of gametocyte viability (luciferase reporter); higher = more inhibition
Condition: 1 µM; 48 h
Readout: % inhibition of gametocyte viability (%)
Form entry: value (%) — number only.

Recorded % inhibition of gametocyte viability, per entry:
- Smiles Repr: "COCCn1cnc2c(=O)[nH]c(Nc3ccccc3)nc21"
  Assay System: "Plasmodium falciparum NF54 stage IV/V gametocytes"
  Units Symbol: "%"
  % inhibition of gametocyte viability: 14.5
- Smiles Repr: "CC(C)CCN1C(=O)C(C2=NS(=O)(=O)c3cc(NS(C)(=O)=O)ccc3N2)=C(O)[C@@H]2[C@H]3CC[C@H](C3)[C@@H]21"
  Assay System: "Plasmodium falciparum NF54 stage IV/V gametocytes"
  Units Symbol: "%"
  % inhibition of gametocyte viability: 1.44
- Smiles Repr: "O=C(NCc1ccc(F)cc1)c1c(O)c2ncccc2[nH]c1=O"
  Assay System: "Plasmodium falciparum NF54 stage IV/V gametocytes"
  Units Symbol: "%"
  % inhibition of gametocyte viability: 5.58

q: So what's the measured % inhibition of gametocyte viability for this one? "O=C(O)/C=C/C=C/c1cccc(Oc2cc(Cl)cc(Cl)c2)c1"
a: 9.35

q: So what's the measured % inhibition of gametocyte viability for this one? "COc1cc(NS(=O)(=O)c2ccc(C)cc2)c2ncccc2c1"
a: 3.47

q: So what's the measured % inhibition of gametocyte viability for this one? "Nc1nc(O)c(Br)c(-c2ccccc2)n1"
a: 1.49

q: So what's the measured % inhibition of gametocyte viability for this one? "Nc1nc(Nc2ccc3nc(-c4ccc(F)cc4)cc(N)c3c2)cc(-c2ccccc2)n1"
a: 98.5

----------
Parameter % inhibition of gametocyte viability: see the listing below.
Test system: Plasmodium falciparum NF54 stage IV/V gametocytes
Protocol: % inhibition of gametocyte viability (ATP bioluminescence); higher = more inhibition
Condition: 5 µM; 24 h

Recorded % inhibition of gametocyte viability, per entry:
- Smiles Repr: "CCc1nc(N)nc(N)c1C#CCc1ccccc1"
  Readout: "% inhibition of gametocyte viability"
  Data Value: "< 0%"
- Smiles Repr: "FC(F)(F)Oc1ccc(Nc2ccc3cccc(Cl)c3n2)cc1"
  Readout: "% inhibition of gametocyte viability"
  Data Value: "< 0%"
- Smiles Repr: "Fc1ccc(-c2nc(-c3c[nH]c4ccc(Br)cc34)[nH]c2-c2ccc(F)cc2)cc1"
  Readout: "% inhibition of gametocyte viability"
  Data Value: "< 0%"

q: So what's the measured % inhibition of gametocyte viability for this one? "Clc1cc2nc(C3CCNCC3)n(Cc3ccc(CNCCc4cnc[nH]4)cc3)c2cc1Cl"
a: 0.428%

q: So what's the measured % inhibition of gametocyte viability for this one? "Oc1cc(-c2cccc3ccccc23)[nH]n1"
a: < 0%

q: So what's the measured % inhibition of gametocyte viability for this one? "C[C@H]1CC[C@@]2(O)C(C)(C)[C@@H]3CC[C@@]2(C)[C@H]1C3"
a: < 0%

----------
Parameter % inhibition of gametocyte viability: see the listing below.
Tested on: Plasmodium falciparum NF54 stage IV/V gametocytes
Protocol: % inhibition of gametocyte viability (luciferase reporter); higher = more inhibition
Condition: 5 µM; 48 h

Recorded % inhibition of gametocyte viability, per entry:
- Compound: "Cc1c(N)cccc1Cn1ccc(OCCc2cccs2)cc1=O"
  % inhibition of gametocyte viability: "< 0%"
- Compound: "O=C(O)c1sccc1S(=O)(=O)n1ccc2cc(Br)ccc21"
  % inhibition of gametocyte viability: "< 0%"

Lab note: next compound to report on.
q: So what's the measured % inhibition of gametocyte viability for this one? CC(C)(C)NC(=O)N[C@H](C(=O)N1C[C@H]2[C@@H]([C@H]1C(=O)NC(CC1CCC1)C(=O)C(N)=O)C2(C)C)C(C)(C)C (stereo partly drawn)
a: < 0%

----------
Test system: Plasmodium falciparum NF54 stage IV/V gametocytes
Protocol: % inhibition of gametocyte viability (luciferase reporter); higher = more inhibition
Condition: 5 µM; 48 h
Readout: % inhibition of gametocyte viability (%)
Form entry: value (%) — number only.

Recorded % inhibition of gametocyte viability, per entry:
- Smiles Repr: "O=C(Nc1ccc(F)cc1)c1nn(-c2ccccc2)c(=O)cc1Cl"
  Assay System: "Plasmodium falciparum NF54 stage IV/V gametocytes"
  Units Symbol: "%"
  % inhibition of gametocyte viability: 91.6
- Smiles Repr: "CC(=N)N1CC[C@H](SC2=C(C(=O)O)N3C(=O)[C@@H]([C@@H](C)O)[C@H]3C2)C1"
  Assay System: "Plasmodium falciparum NF54 stage IV/V gametocytes"
  Units Symbol: "%"
  % inhibition of gametocyte viability: 0.678
- Smiles Repr: "O=C(CCCC(F)(F)F)N1CCC(c2nc(-c3nccs3)no2)CC1"
  Assay System: "Plasmodium falciparum NF54 stage IV/V gametocytes"
  Units Symbol: "%"
  % inhibition of gametocyte viability: 8.02

q: So what's the measured % inhibition of gametocyte viability for this one? "Cc1cc(C)n2nc(C(=O)NS(=O)(=O)c3c(C)cccc3OC(F)(F)F)nc2n1"
a: 14.2

----------
Parameter % viability of CHO cells: see the listing below.
Tested on: CHO
Protocol: % viability of CHO cells (MTT); higher = less toxic
Condition: 2 µM; 48 h
Form entry: value (%) — number only.

Recorded % viability of CHO cells, per entry:
- Molecule: "CONC(=N)c1ccc(-c2ccc(-c3ccc(C(=N)NOC)cc3)o2)cc1"
  Units Symbol: "%"
  Data Value: 111
- Molecule: "CO[C@@]1(NC(=O)Cc2cccs2)C(=O)N2C(C(=O)O)=C(COC(N)=O)CS[C@@H]21"
  Units Symbol: "%"
  Data Value: 114
- Molecule: "Cc1ccccc1NC(=O)Nc1cccc([N+](=O)[O-])c1"
  Units Symbol: "%"
  Data Value: 121
- Molecule: "CC(=O)N1CCN(c2ccc(OCC3COC(Cn4ccnc4)(c4ccc(Cl)cc4Cl)O3)cc2)CC1 (stereo not drawn)"
  Units Symbol: "%"
  Data Value: 105

q: So what's the measured % viability of CHO cells for this one? "C[C@@H](c1nc(-c2ccc(C#N)cc2)cs1)[C@](O)(Cn1cncn1)c1ccc(F)cc1F"
a: 92.5

----------
Tested on: Plasmodium falciparum NF54 stage IV/V gametocytes
Protocol: % inhibition of gametocyte viability (PrestoBlue); higher = more inhibition
Condition: 1 µM; 48 h
Parameter % inhibition of gametocyte viability: see the listing below.

- Compound: "COc1ccc(SC(=O)N[C@H](CCC(=O)O)C(=O)O)cc1"
  Readout: "% inhibition of gametocyte viability"
  Data Value: "< 0%"
- Compound: "CCCCCCCCCN1C[C@@H](O)[C@H](O)[C@@H](O)[C@@H]1CO"
  Readout: "% inhibition of gametocyte viability"
  Data Value: "< 0%"
- Compound: "CCCCOC(=O)Nc1cc2nc(C3CCCCC3)[nH]c2cc1N(CC)CC"
  Readout: "% inhibition of gametocyte viability"
  Data Value: "< 0%"
- Compound: "NC[C@H]1O[C@H](O[C@H]2[C@H](O)[C@@H](O[C@H]3O[C@H](CO)[C@@H](O)[C@H](N)[C@H]3O)[C@H](N)C[C@@H]2N)[C@H](N)C[C@@H]1O"
  Readout: "% inhibition of gametocyte viability"
  Data Value: "< 0%"
- Compound: "COc1ccc(NC(=O)CC2Sc3ncnn3C2=O)cc1 (centres undefined)"
  Readout: "% inhibition of gametocyte viability"
  Data Value: "< 0%"
- Compound: "CCc1nc(N)nc(N)c1C#CC(C)c1cc(OC)cc(-c2ccncc2)c1 (centres undefined)"
  Readout: "% inhibition of gametocyte viability"
  Data Value: "< 0%"

q: So what's the measured % inhibition of gametocyte viability for this one? O=c1ccc2ncc(=O)n3c2n1CC3CN1CCC(NCc2cc3c(cn2)OCCC3)CC1 (centres undefined)
a: < 0%

q: So what's the measured % inhibition of gametocyte viability for this one? "CCC[C@@H]1C[C@@H](C(=O)N[C@@H]([C@H]2O[C@H](SC)[C@H](O)[C@@H](O)[C@H]2O)[C@H](C)Cl)N(C)C1"
a: 10.3%

----------
Test system: Plasmodium falciparum NF54 stage IV/V gametocytes
Protocol: % inhibition of gametocyte viability (PrestoBlue); higher = more inhibition
Condition: 1 µM; 48 h
Readout: % inhibition of gametocyte viability

Recorded % inhibition of gametocyte viability, per entry:
- Molecule: "Cc1[nH]c2ccccc2c1CCNCc1ccc(/C=C/C(=O)NO)cc1"
  % inhibition of gametocyte viability: "19.9%"
- Molecule: "OB1OCc2cc(Cl)ccc21"
  % inhibition of gametocyte viability: "< 0%"
- Molecule: "C[C@@H](O)[C@H](N)C(=O)NS(=O)(=O)c1cccc(-c2ccc3[nH]ncc3c2)c1"
  % inhibition of gametocyte viability: "35.8%"
- Molecule: "CCCCc1ccc(S(=O)(=O)Nc2cc(C)on2)cc1"
  % inhibition of gametocyte viability: "18%"
- Molecule: "OC[C@@H]1CC[C@H](n2cnc3c(O)ncnc32)O1"
  % inhibition of gametocyte viability: "1.35%"
- Molecule: "CCc1cc(Nc2cc(=O)n(CCN3CCN(C(=O)c4ccccc4)CC3)c(=O)[nH]2)ccc1C"
  % inhibition of gametocyte viability: "< 0%"
- Molecule: "C=C(C)n1c(=O)n(Cc2ccccc2C)c2ccccc21"
  % inhibition of gametocyte viability: "4.81%"
- Molecule: "COc1ccc(C(C)(C)C)cc1NC(=O)C(=O)c1ccc(OCCN2CCOCC2)c2ccccc12"
  % inhibition of gametocyte viability: "12.9%"
- Molecule: "O=S(=O)(NCB(O)O)c1cc2c(Cl)ccc(Cl)c2s1"
  % inhibition of gametocyte viability: "22.6%"
- Molecule: "CCOC(=O)N[C@@H]1CC[C@@H]2[C@@H](C1)C[C@H]1C(=O)O[C@H](C)[C@H]1[C@H]2/C=C/c1ccc(-c2cccc(F)c2)cn1"
  % inhibition of gametocyte viability: "15.9%"

q: So what's the measured % inhibition of gametocyte viability for this one? "Cn1cc(NC(=O)c2cc(NC(=O)c3ccc(/C=C/c4cnc5ccccc5c4)cc3)cn2C)cc1C(=O)NCCN1CCOCC1"
a: 18.3%

q: So what's the measured % inhibition of gametocyte viability for this one? "Clc1ccc(Cn2c(CN3CCCC3)nc3ccccc32)cc1"
a: 23.6%

q: So what's the measured % inhibition of gametocyte viability for this one? "O=[N+]([O-])c1cn2c(n1)OC[C@@H](OCc1ccc(OC(F)(F)F)cc1)C2"
a: < 0%

q: So what's the measured % inhibition of gametocyte viability for this one? "CC(=O)NC[C@H]1CN(c2ccc(N3CCSCC3)c(F)c2)C(=O)O1"
a: < 0%

q: So what's the measured % inhibition of gametocyte viability for this one? CC1CN(c2ncnc3c2c(-c2ccccc2)cn3-c2ccc(F)cc2)CC(C)O1 (centres undefined)
a: 17.3%

q: So what's the measured % inhibition of gametocyte viability for this one? "O=C(NCc1ccc(F)cc1)c1c(O)c2ncccc2[nH]c1=O"
a: < 0%

q: So what's the measured % inhibition of gametocyte viability for this one? C[C@H](NC(CC(=O)c1ccccc1C(F)(F)F)C(=O)O)c1ccccc1 (some centres undefined)
a: 20.3%

q: So what's the measured % inhibition of gametocyte viability for this one? "CC(=O)Nc1cc(NS(=O)(=O)c2ccc(Cl)cc2)cc2c(Cl)n[nH]c12"
a: 21.4%

q: So what's the measured % inhibition of gametocyte viability for this one? "CC(=O)N[C@H](C)C(=O)N[C@H](Cc1ccccc1)C(=O)O"
a: < 0%

q: So what's the measured % inhibition of gametocyte viability for this one? "CC#C[C@]1(O)CC[C@H]2[C@@H]3CCC4=CC(=O)CCC4=C3[C@@H](c3ccc(N(C)C)cc3)C[C@@]21C"
a: < 0%

q: So what's the measured % inhibition of gametocyte viability for this one? CCCCCCCCC(CP(=O)(O)C(C)N)C(=O)O (centres undefined)
a: < 0%
